Target: Tyrosine-protein kinase Lck (Homo sapiens) (UniProt P06239)
Sequence (P06239 2-509 limits assumed): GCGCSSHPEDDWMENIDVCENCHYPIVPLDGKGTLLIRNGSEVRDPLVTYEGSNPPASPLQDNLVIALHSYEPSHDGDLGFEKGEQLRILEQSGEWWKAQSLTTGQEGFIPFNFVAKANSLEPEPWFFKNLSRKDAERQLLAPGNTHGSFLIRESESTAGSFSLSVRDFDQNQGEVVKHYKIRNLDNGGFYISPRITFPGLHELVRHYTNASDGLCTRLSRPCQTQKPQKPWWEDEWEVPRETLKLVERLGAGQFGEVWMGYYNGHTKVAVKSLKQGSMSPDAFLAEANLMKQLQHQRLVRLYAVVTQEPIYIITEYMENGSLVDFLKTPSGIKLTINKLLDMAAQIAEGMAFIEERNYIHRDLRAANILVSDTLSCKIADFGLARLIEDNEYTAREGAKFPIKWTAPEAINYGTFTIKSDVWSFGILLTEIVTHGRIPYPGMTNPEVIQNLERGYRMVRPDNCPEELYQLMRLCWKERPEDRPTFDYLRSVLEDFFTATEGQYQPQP
Test: Compound was tested for its antagonistic activity at 100 uM concentration against SH2 domain of LCK protein.
Assay type: functional
Where a SMILES comes first, the peptide text is derived from it. [ ]: non-standard residue; d: D form. The star is where a group is joined. Gly(N-Bn(4-CH2PO3H2)) = O=C(O)CNCc1ccc(CP(=O)(O)O)cc1; N(3-phenylpropyl)Gly = O=C(O)CNCCCc1ccccc1; Hexanoyl = CCCCCC(=O)*; Nleu = CC(C)CNCC(=O)O; NEtG = CCNCC(=O)O
Result Type: inhibition (%)
The answer is to be given in %; state only the numeric part.

Below: 2 compounds and their reported inhibition.
[[record]]
compound = "CCCCCC(=O)N(CC(=O)N(CCCc1ccccc1)CC(=O)N(CC(=O)N(CCCc1ccccc1)CC(N)=O)CC(C)C)Cc1ccc(CP(=O)(O)O)cc1 (Hexanoyl-[Gly(N-Bn(4-CH2PO3H2))][N(3-phenylpropyl)Gly][Nleu][N(3-phenylpropyl)Gly]-NH2)"
tested_on = "Tyrosine-protein kinase Lck (Homo sapiens) (UniProt P06239)"
result_type = "inhibition"
measured_number = 32

[[record]]
compound = "CCCCCC(=O)N(CC(=O)N(CC(=O)N(CC(=O)N(CC)CC(N)=O)CC(C)C)CC(C)C)Cc1ccc(CP(=O)(O)O)cc1 (Hexanoyl-[Gly(N-Bn(4-CH2PO3H2))][Nleu][Nleu][NEtG]-NH2)"
tested_on = "Tyrosine-protein kinase Lck (Homo sapiens) (UniProt P06239)"
result_type = "inhibition"
measured_number = 1


stdin: Request the reported inhibition associated with CCCCCC(=O)N(CC(=O)N(CC(=O)N(CC(=O)N(CC(N)=O)CC(C)C)CC(C)C)CC(C)C)Cc1ccc(CP(=O)(O)O)cc1 (Hexanoyl-[Gly(N-Bn(4-CH2PO3H2))][Nleu][Nleu][Nleu]-NH2)
stdout: 3

stdin: Which inhibition reading was recorded for the compound CCCCCC(=O)N(CC(=O)N(CC(=O)N(CC(=O)N(CCCc1ccccc1)CC(N)=O)CC(C)C)CC(C)C)Cc1ccc(CP(=O)(O)O)cc1 (Hexanoyl-[Gly(N-Bn(4-CH2PO3H2))][Nleu][Nleu][N(3-phenylpropyl)Gly]-NH2) ?
stdout: 1

stdin: Dear colleague, I am looking for the recorded inhibition of the following compound: CCCCCC(=O)N(CC(=O)N(CC(=O)N(CC)CC(=O)N(CC)CC(N)=O)CC(C)C)Cc1ccc(CP(=O)(O)O)cc1 (Hexanoyl-[Gly(N-Bn(4-CH2PO3H2))][Nleu][NEtG][NEtG]-NH2)
stdout: 61

stdin: Data request, read-out inhibition, for CCCCCC(=O)N(CC(=O)N(CC(=O)N(CCCc1ccccc1)CC(=O)N(CC(N)=O)CC(C)C)CC(C)C)Cc1ccc(CP(=O)(O)O)cc1 (Hexanoyl-[Gly(N-Bn(4-CH2PO3H2))][Nleu][N(3-phenylpropyl)Gly][Nleu]-NH2)
stdout: 1

stdin: I am curious: what inhibition value has been reported for CCCCCC(=O)N(CC(=O)N(CCCc1ccccc1)CC(=O)N(CCCc1ccccc1)CC(=O)N(CC)CC(N)=O)Cc1ccc(CP(=O)(O)O)cc1 (Hexanoyl-[Gly(N-Bn(4-CH2PO3H2))][N(3-phenylpropyl)Gly][N(3-phenylpropyl)Gly][NEtG]-NH2) ?
stdout: 4

stdin: // query inhibition value for entry CCCCCC(=O)N(CC(=O)N(CC)CC(=O)N(CC)CC(=O)N(CCCc1ccccc1)CC(N)=O)Cc1ccc(CP(=O)(O)O)cc1 (Hexanoyl-[Gly(N-Bn(4-CH2PO3H2))][NEtG][NEtG][N(3-phenylpropyl)Gly]-NH2)
stdout: 1

stdin: What value of inhibition has been reported for the following compound? CCCCCC(=O)N(CC(=O)N(CC)CC(=O)N(CCCc1ccccc1)CC(=O)N(CCCc1ccccc1)CC(N)=O)Cc1ccc(CP(=O)(O)O)cc1 (Hexanoyl-[Gly(N-Bn(4-CH2PO3H2))][NEtG][N(3-phenylpropyl)Gly][N(3-phenylpropyl)Gly]-NH2)
stdout: 0
